# Tested on: c-Src
# Experiment: phosphorylation enrichment, bacterial display (enrichment ratio); higher = better substrate or ligand; peptides without Tyr show the background;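 further: 11-residue human phosphosite peptides and single-mutation variants displayed on the E. coli surface, counted by deep sequencing, each peptide's frequency after selection divided by its frequency in the unselected input library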;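 further: frequency after pTyr selection over input frequency; kinase dosed for 20-30% of maximal phosphorylation in three min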
Property Name: phosphorylation enrichment
Numbers only.

Seq String	Assay System	phosphorylation enrichment
YFVVEYRNQKP [MUC17_Y4332_D4334N]	c-Src	0.836

Dear colleague, could you please provide phosphorylation enrichment for the sequences listed below?
1. GRLGEYDIDEV [SMS_Y134_V132G]
2. IDAICYFRMEN [NPHS2_Y194_YF]
3. KNEVLYDEENH [ARFGEF1_Y314_G316E]

Data returned:
1. 0.643
2. 0.613
3. 0.582

Dear colleague, could you please provide phosphorylation enrichment for the sequences listed below?
1. GCLSKYSGVFS [TUBGCP6_Y1624_V1621L]
2. ESMLRYDVYGG [STOX1_Y607_E608D]
3. LNCAGYCDALE [MTUS1_Y151]
4. WASGIYFVPKG [APBB1IP_Y340_R335W_YF]
5. ISRLKYPVSQQ [BTK_Y375]
6. IRTIDYRYTVC [IDS_Y497_W502C]

Data returned:
1: 0.509; 2: 1.29; 3: 0.683; 4: 5.32; 5: 0.342; 6: 0.461

Dear colleague, could you please provide phosphorylation enrichment for the sequences listed below?
1. HDHYGYRQSVT [CD55_Y245_R240H]
2. LESILYESSVV [TRPV4_Y91_T89I]
3. RDMNAYISPSP [MMAA_Y207_R209S]
4. FSEVRYMKEPF [HIPK4_Y170_V171M_YF]
5. ASSPVYVPTTR [GATA6_Y188]
6. WKKEIYEESST [MOCS2_Y170]
7. HPHECYAKVFD [ALB_Y394_D389H]

Data returned:
1. 0.538
2. 1.14
3. 0.416
4. 0.388
5. 0.51
6. 0.485
7. 0.659

Dear colleague, could you please provide phosphorylation enrichment for the sequences listed below?
1. SLLVVYPWTQR [HBB_Y36_R31S]
2. LTERGYSFTTT [ACTB_Y198]
3. FRIDHYLGKEM [G6PD_Y202_YF]
4. GGRIDYIAGLD [APRT_Y60]
5. LGRGKYSEVFE [CSNK2A1_Y50]
6. AIFWRYSKFFD [SH3PXD2B_Y45_R43W_YF]

Data returned:
0.36
0.46
0.32
0.422
0.704
0.326

* * *

Provide the reported phosphorylation enrichment of each item.
# Assay System: MERTK (UniProt Q12866)
# Sequence (Q12866 whole entry, looked up): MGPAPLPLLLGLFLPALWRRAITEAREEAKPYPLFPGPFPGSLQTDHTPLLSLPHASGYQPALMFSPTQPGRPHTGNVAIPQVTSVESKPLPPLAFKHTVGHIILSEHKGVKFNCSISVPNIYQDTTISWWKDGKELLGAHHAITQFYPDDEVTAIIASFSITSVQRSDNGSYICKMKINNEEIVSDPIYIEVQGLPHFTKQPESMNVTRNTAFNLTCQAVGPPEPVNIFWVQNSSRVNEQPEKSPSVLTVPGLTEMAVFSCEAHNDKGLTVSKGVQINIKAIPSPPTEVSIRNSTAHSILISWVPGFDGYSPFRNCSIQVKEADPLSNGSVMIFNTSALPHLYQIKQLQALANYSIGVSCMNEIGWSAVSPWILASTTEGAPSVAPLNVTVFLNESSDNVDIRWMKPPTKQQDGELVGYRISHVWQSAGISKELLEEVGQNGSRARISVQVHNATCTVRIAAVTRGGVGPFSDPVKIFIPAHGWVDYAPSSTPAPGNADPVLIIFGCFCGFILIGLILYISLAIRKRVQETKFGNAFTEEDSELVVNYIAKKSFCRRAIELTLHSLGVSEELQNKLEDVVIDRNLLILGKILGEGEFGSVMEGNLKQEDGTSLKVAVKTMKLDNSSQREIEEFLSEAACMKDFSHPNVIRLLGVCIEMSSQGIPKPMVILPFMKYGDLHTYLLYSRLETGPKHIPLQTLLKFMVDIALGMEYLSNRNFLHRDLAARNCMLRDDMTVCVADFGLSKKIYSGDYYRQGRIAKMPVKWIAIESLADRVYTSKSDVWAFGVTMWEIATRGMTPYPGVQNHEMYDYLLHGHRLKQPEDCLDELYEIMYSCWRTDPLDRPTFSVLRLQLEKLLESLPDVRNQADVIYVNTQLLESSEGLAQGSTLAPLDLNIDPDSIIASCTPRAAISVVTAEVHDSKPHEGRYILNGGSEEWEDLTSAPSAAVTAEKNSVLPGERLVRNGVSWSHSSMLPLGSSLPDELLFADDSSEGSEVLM
# Experiment: phosphorylation enrichment, bacterial display (enrichment ratio); higher = better substrate or ligand; peptides without Tyr show the background

Dear colleague, could you please provide phosphorylation enrichment for the sequences listed below?
1. QKKPCYEIRWK [PDGFRB_Y562_R561C]
2. TSYQMYDKGLV [IARS2_Y231_F227S]
3. EDSEYYRAFEE [CASQ2_Y179_K180R]
4. KENITYMKSEQ [L1TD1_Y24_R27S]
5. RRAKGYPINLF [ITGB2_Y125_D128N_YF]

Data returned:
1. 0.67
2. 0.463
3. 0.497
4. 0.39
5. 0.476

* * *

# Assay System: FGFR1 (UniProt P11362)
# Sequence (P11362 whole entry, looked up): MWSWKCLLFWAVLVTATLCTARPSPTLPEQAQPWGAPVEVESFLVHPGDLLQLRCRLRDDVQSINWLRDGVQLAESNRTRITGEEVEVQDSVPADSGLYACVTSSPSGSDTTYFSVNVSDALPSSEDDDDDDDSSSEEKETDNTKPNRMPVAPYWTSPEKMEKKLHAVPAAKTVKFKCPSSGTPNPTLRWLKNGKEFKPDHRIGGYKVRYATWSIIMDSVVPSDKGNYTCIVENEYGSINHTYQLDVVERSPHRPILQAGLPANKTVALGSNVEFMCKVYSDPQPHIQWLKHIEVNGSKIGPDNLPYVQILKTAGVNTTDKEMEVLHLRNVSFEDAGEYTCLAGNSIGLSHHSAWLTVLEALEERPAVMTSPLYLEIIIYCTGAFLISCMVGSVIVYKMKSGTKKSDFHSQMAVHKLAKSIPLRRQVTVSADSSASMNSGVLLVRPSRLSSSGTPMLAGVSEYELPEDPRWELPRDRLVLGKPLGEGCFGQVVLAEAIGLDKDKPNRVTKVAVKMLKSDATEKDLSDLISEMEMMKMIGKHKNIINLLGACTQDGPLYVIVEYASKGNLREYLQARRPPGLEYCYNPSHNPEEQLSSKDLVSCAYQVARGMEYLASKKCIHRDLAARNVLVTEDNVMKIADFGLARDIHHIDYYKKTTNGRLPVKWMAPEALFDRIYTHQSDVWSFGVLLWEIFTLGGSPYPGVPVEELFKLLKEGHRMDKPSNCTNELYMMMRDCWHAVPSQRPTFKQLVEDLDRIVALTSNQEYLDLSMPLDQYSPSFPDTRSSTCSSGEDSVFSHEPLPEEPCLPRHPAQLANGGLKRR
# Experiment: phosphorylation enrichment, bacterial display (enrichment ratio); higher = better substrate or ligand; peptides without Tyr show the background
Provide the reported phosphorylation enrichment of each item.

# example entries with known answers
Seq String	phosphorylation enrichment
IRGNMYFENSF [EGFR_Y112_YF]	0.514
LHRAHYDLHHT [AHSG_Y314_R317H]	0.511
EAESWYQTKYE [KRT75_Y342]	0.491
DAMQTYNGNDE [TSPAN7_Y131]	0.508
REGAKYVSHGT [ASS1_Y113_A118T]	0.493

// next item, phosphorylation enrichment requested
Data request: Fill blank: measured phosphorylation enrichment of the sequence PRPACYPSTVS [CACNA1C_Y1832_G1831C] is ____.
Data returned: 0.49
